- tested_target: HuR (UniProt Q15717 1-326)
- Sequence (Q15717 whole entry): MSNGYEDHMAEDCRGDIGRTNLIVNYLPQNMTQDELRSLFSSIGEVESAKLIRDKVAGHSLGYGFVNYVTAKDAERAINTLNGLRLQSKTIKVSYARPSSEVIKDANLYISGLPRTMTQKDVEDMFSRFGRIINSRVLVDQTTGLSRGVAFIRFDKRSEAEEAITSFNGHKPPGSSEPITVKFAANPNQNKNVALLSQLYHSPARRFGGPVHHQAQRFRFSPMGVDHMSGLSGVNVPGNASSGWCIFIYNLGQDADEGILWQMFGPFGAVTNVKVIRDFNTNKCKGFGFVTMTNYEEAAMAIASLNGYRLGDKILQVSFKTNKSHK
- protocol: EMSA
pKd: −log10 of the molar value.
Measured pKd by item

binder: GCUAGUUUUUUUGUACUAUU (ssRNA) [Nrf2 3'-UTR Site 1]
pKd: 7.70
--
binder: AAAAAAAUUUUAAGAGCUGG (ssRNA) [Nrf2 3'-UTR Site 3]
pKd: 7.12

FYI, the data here is from paper doi:10.1101/565937.
